Listing of recorded HC50 at 24 h by entry.
assay: Hemolytic activity in human RBC after 24 hrs; format: ADME, cell-based, Erythrocyte; settings: red blood cells (erythrocytes), read-out: LC50
Recorded Endpoint: HC50 at 24 h

In [3]: df
Out[3]:
                           smiles_structure  recorded_endpoint  value_observed
0  Cl.NC1=NC2(CCCCC2)N(c2ccc(OCc3cn(CCCCOc4ccc5ccc(=O)oc5c4)nn3)cc2)C(N)=N1       HC50 at 24 h        > 100 µM
1  Cl.NC1=NC2(CCCCC2)N(c2ccc(OCc3cn(CCCOc4ccc5ccc(=O)oc5c4)nn3)cc2)C(N)=N1       HC50 at 24 h        > 100 µM
